- Experimental system: carbonic anhydrase (bovine erythrocyte, Sigma Chemical Company, mixture of isozymes) (Bos taurus, UniProt P00921)
- Construct: purchased Sigma Chemical Company; host or cells: bovine erythrocyte
- Sequence (P00921 2-260 limits assumed): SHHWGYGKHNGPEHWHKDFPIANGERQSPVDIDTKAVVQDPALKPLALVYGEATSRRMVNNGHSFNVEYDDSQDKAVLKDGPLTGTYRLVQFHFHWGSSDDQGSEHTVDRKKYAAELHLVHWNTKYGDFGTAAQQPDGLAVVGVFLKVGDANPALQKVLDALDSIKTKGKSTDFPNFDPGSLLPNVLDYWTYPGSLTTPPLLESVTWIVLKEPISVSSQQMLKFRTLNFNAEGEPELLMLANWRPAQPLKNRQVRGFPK
- Test description: Binding constants by isothermal titration calorimetry
- Run parameters: carbonic anhydrase, summary statement
Parameter measured: Kd
Please give the number followed by its unit.

Q: Tell me the measured Kd of NS(=O)(=O)c1ccccc1 [Control 6, Benzene sulfonamide, reference compound] , please.
A: 120 µM
